test: VP16 transactivation inhibitors, counter-screen for SRC1 inhibitor project, cell-based, luminescence, high throughput (AID 588824); details: cell-based VP16 transactivation luciferase luminescence; at 3.6 µM; hits give high values
Mark condition met for reported inhibition of 40% or greater; mark condition not met for anything smaller.

Worked examples, 3 compounds total:
compound=O=C(Nc1ccc(OC(=O)N2CCCCC2)cc1)N1CCOCC1 classification="condition not met"
compound="CC(=O)OC1(C)CC(C)C(=O)C(C(O)CC2CC(=O)NC(=O)C2)C1 (stereo unspecified)" classification="condition met"
compound=N=c1c2c(n(Cc3ccc(Cl)cc3Cl)c3c1CCC3)CCCC2 classification="condition met"

Qu. inhibition >= 40% for `Cc1ccc(-c2cc(-c3ccccc3)cc(-c3ccccc3)[n+]2-c2ccccc2)cc1` ?
Ans. condition met

Qu. inhibition >= 40% for `CCN(CC)C(=O)c1ccc(NC(=O)c2ccc(-n3cncn3)c([N+](=O)[O-])c2)cc1` ?
Ans. condition not met

Qu. inhibition >= 40% for O=C1NC2C(O)C(O)C(O)C(O)C2c2cc3c(c(O)c21)OCO3 (stereo unspecified) ?
Ans. condition met

Qu. inhibition >= 40% for CC(=O)OC1CC(OC2C(O)CC(OC3C(O)CC(OC4CCC5(C)C(CCC6C5CCC5(C)C(C7=CC(=O)OC7)C(O)CC65O)C4)OC3C)OC2C)OC(C)C1OC1OC(CO)C(O)C(O)C1O (stereo unspecified) ?
Ans. condition met

Qu. inhibition >= 40% for CSCCC(c1nnnn1Cc1ccccc1)N1CCC(n2c(=O)[nH]c3ccccc32)CC1 (stereo unspecified) ?
Ans. condition met

Qu. inhibition >= 40% for `CCN1CCN(c2ncnc3ccc(Br)cc23)CC1` ?
Ans. condition met

---

experiment: VP16 transactivation reporter inhibitors, counter-screen for LRH-1 inverse agonist project, cell-based, luminescence, high throughput (AID 651615); details: Gal4-VP16 luciferase reporter cells, at 3.6 µM, hits give high values
Mark rule met for reported inhibition of 90% or greater; mark rule not met for anything smaller.

Worked examples, 5 molecules total:
molecule=Cc1ccc(-c2cc(-c3ccc(C)cc3)[n+](-c3ccccc3)c(-c3ccc(C)cc3)c2)cc1 classification="rule met"
molecule="C[C@@H]1O[C@@H](O[C@@H]2C=C3CC[C@@H]4C(CC[C@]5(C)[C@@H](c6ccc(=O)oc6)CC[C@]45O)[C@@]3(C)CC2)[C@H](O)[C@H](O)[C@H]1O (some centres undefined)" classification="rule met"
molecule=C[C@]12CC[C@H](O)C[C@H]1CC[C@@H]1[C@@H]2CC[C@]2(C)[C@@H](C3=CC(=O)OC3)CC[C@]12O classification="rule not met"
molecule=Cc1cc(OC(=O)c2ccco2)c2c3c(c(=O)oc2c1)CCCC3 classification="rule not met"
molecule="COc1cc2c(cc1OC)C1C(=O)c3ccc4c(c3OC1CO2)CC(C(C)C)O4 (centres undefined)" classification="rule not met"

Qu. inhibition >= 90% for CCOC(=O)c1c(C)n(CC(O)CN2CCOCC2)c2cc(Br)c(OC)cc12 (centres undefined) ?
Ans. rule not met

Qu. inhibition >= 90% for `Clc1ccc(C[n+]2c(-c3ccccc3)cc(-c3ccccc3)cc2-c2ccccc2)cc1` ?
Ans. rule met

Qu. inhibition >= 90% for O=c1[nH]c2ccccc2n1C1CCN(C(c2cccc3ccccc23)c2nnnn2Cc2ccccc2)CC1 (centres undefined) ?
Ans. rule not met

Qu. inhibition >= 90% for `O=[N+]([O-])c1ccc(N2CCOCC2)c2c1no[n+]2[O-]` ?
Ans. rule not met
